- target_of_assay: equine FcRn (large alpha subunit p51) / equine beta-2-microglobulin complex, biotinylated (equine) (UniProt P30441)
- experiment_description: SPR (Biacore), pH 6
Entries annotated with measured Kd
Please give a number only; it is taken to be in nM.

{"columns": ["binder", "recorded_number"],
 "data": [
  ["equine IgG4 K311F (antibody, part only; not given: variable domains, not shown: another chain or arm of the molecule; small tags and cut ends) constant: ASTTAPKVFPLASHSAATSGSTVALGCLVSSYFPEPVTVSWNSGALTSGVHTFPSVLQSSGLYSLSSMVTVPASSLKSQTYICNVAHPASSTKVDKKIVIKECNGGCPAECLQVGPSVFIFPPKPKDVLMISRTPTVTCVVVDVGHDFPDVQFNWYVDGVETHTATTEPKQEQFNSTYRVVSVLPIQHFDWLSGKEFKCKVNNKALPAPVERTISKPTGQPREPQVYVLAPHRDELSKNKVSVTCLVKDFYPTDIDIEWKSNGQPEPETKYSTTPAQLDSDGSYFLYSKLTVETNRWQQGTTFTCAVMHEALHNHYTEKSVSKSPGK", 41.8]
]}

# evaluate next
Challenge: Kd for equine IgG4 N434A (antibody, part only; not given: Variable domains, not shown: another chain or arm of the molecule) constant: ASTTAPKVFPLASHSAATSGSTVALGCLVSSYFPEPVTVSWNSGALTSGVHTFPSVLQSSGLYSLSSMVTVPASSLKSQTYICNVAHPASSTKVDKKIVIKECNGGCPAECLQVGPSVFIFPPKPKDVLMISRTPTVTCVVVDVGHDFPDVQFNWYVDGVETHTATTEPKQEQFNSTYRVVSVLPIQHKDWLSGKEFKCKVNNKALPAPVERTISKPTGQPREPQVYVLAPHRDELSKNKVSVTCLVKDFYPTDIDIEWKSNGQPEPETKYSTTPAQLDSDGSYFLYSKLTVETNRWQQGTTFTCAVMHEALHAHYTEKSVSKSPGK ?
Response given: 17.4
